In this section, each of the molecules is paired with its reported melting point.

Sample answers from the record:
Fc1ccccc1C1=NCCN(C2=NCCO2)c2ccc(Cl)cc21 = 162 to 164 °C
Cc1cccc2c1N(CC(=O)N1CC3CCC(CC3)C1)CC(NC(=O)Nc1cccc(Br)c1)N=C2c1ccccc1F (stereo not given) = > 250 °C
O=C(COc1cccc2cccnc12)c1ccccc1 = 124 to 125 °C

Input: Quick check: melting point of O=C=Nc1ccc(-c2n[nH]c3c2Cc2ccccc2-3)cc1 ?
Output: 338 to 339 °C

Input: Quick check: melting point of CCONC(CC)=C1C(=O)CC(C(C)(C)Sc2ccc(C)cc2)CC1=O (stereo not given) ?
Output: 77.5 to 79 °C
